Test system: Staphylococcus aureus
Assay: Antimicrobial activity against multidrug-resistant Staphylococcus aureus H.C. 21036 isolate after 20 hrs by twofold serial dilution technique
Type: functional
Settings: H.C. 21036, 20 h
recordedMetric: MIC

givenSmiles	reported
O=C1NC(=S)/C(=C/c2cccc(F)c2)S1	2 µg/mL
O=C1NC(=S)/C(=C/c2ccc(Cl)cc2Cl)S1	8 µg/mL
O=C1NC(=S)/C(=C/c2ccc(Cl)cc2)S1	2 µg/mL
O=C1NC(=S)/C(=C/c2ccccc2Br)S1	4 µg/mL
O=C1NC(=S)/C(=C/c2c(Cl)cccc2Cl)S1	8 µg/mL

---

Tested on: Staphylococcus aureus
Test: Antimicrobial activity against multidrug-resistant Staphylococcus aureus H.C. 21036 isolate after 20 hrs by twofold serial dilution technique
Assay type: functional
Details: H.C. 21036, 20 h

compound	measurementUnits	comparisonSign	MIC
O=C1NC(=S)CS1	µg/mL	=	32
O=C1NC(=S)/C(=C/c2ccccc2Cl)S1	µg/mL	=	2
O=C1NC(=S)/C(=C/c2ccc(Cl)c(Cl)c2)S1	µg/mL	=	4
O=C1NC(=S)/C(=C/c2cccc(Cl)c2)S1	µg/mL	=	2
O=C1NC(=S)/C(=C/c2cccc(Br)c2)S1	µg/mL	=	16
O=C1NC(=S)/C(=C/c2ccc(Br)cc2)S1	µg/mL	=	4
O=C1NC(=S)/C(=C/c2ccccc2F)S1	µg/mL	=	2
CC1=C(C(=O)O)N2C(=O)[C@@H](NC(=O)[C@H](N)c3ccccc3)[C@H]2SC1 [CEPHALEXIN ANHYDROUS]	µg/mL	>	128
CC1(C)S[C@@H]2[C@H](NC(=O)[C@H](N)c3ccccc3)C(=O)N2[C@H]1C(=O)O [AMPICILLIN]	µg/mL	=	32
O=C1NC(=S)/C(=C/c2ccc(F)cc2)S1	µg/mL	=	2
O=C1NC(=S)/C(=C/c2cc(Cl)cc(Cl)c2Cl)S1	µg/mL	=	2
